assay: Plasma free fraction; format: in vitro ADME; settings: human plasma
Quantity name: fraction unbound

structure_smiles=CCCC[C@H](Cc1c[nH]c2ccccc12)NC(=O)c1cnc(N2CCN(C)CC2)s1 reported=~0.025

====

assay: Radio-HPLC metabolite analysis of mouse brain homogenate and plasma after IV radiotracer; type: in vivo, male C57 black 6 mice; conditions: male, C57 black 6, mouse, brain/plasma, intravenous, 1.54 µg, mouse, 40 min; read-out: ratio (SD) of parent in the brain versus parent in plasma
Quantity name: Kp at 40 min

compound="CCCC[C@@H](Cc1c[nH]c2ccccc12)NC(=O)c1cnc(N2CCN([11CH3])CC2)s1 [[^11C-N-CH3]UCB2713]" quantity_name="Kp at 40 min" reported=0.77
